Recorded protein stability index by entry
tested on: Saccharomyces cerevisiae; assay: protein stability index of tFT-peptide fusion (C-terminal peptide) (PSI (0-1 scale)); higher = more stable (slower turnover); conditions: genetic background: das1 deletion; temperature: 30 C;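 further: PSI is a weighted mean of sequencing reads over stability bins, variants kept only with over 10 reads, mCherry proximal and sfGFP distal, peptide attached via GGGS linker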
Lab note: write the figure by itself, no unit.

| input-sequence | target | protein stability index |
| --- | --- | --- |
| VRTFVFLVGYCE | Saccharomyces cerevisiae | 0.406 |
| FCLLRYPFVGVL | Saccharomyces cerevisiae | 0.554 |
| VYFPRLLVRVSW | Saccharomyces cerevisiae | 0.392 |
| CGPLLVTLVLSM | Saccharomyces cerevisiae | 0.305 |

Task: Please report the measured protein stability index for EVGTMALISCSV
Output: 0.319

Task: Please report the measured protein stability index for AFLCVFGFCFFV
Output: 0.372

Task: Please report the measured protein stability index for FFGFFWLFLLFC
Output: 0.291

Task: Please report the measured protein stability index for YPCRLFVRSLLA
Output: 0.369

Task: Please report the measured protein stability index for FYGVRFLVCVSA
Output: 0.111

Task: Please report the measured protein stability index for LQVPTLRLFVFF
Output: 0.577

Task: Please report the measured protein stability index for LARRASCFWVRC
Output: 0.633

Task: Please report the measured protein stability index for FFATFVPSFLLC
Output: 0.556

Task: Please report the measured protein stability index for GRWGGYVGREWG
Output: 0.442

Task: Please report the measured protein stability index for PPRRCFPLLLFF
Output: 0.445

Task: Please report the measured protein stability index for KMIVWKESIKRE
Output: 0.633

Task: Please report the measured protein stability index for ILLYCVLIDPYS
Output: 0.221

----------
test system: Saccharomyces cerevisiae; assay: protein stability index of tFT-peptide fusion (C-terminal peptide) (PSI (0-1 scale)); higher = more stable (slower turnover); conditions: genetic background: wild type; temperature: 30 C
measurement-label: protein stability index
Lab note: write the figure by itself, no unit.

For orientation, consider the following solved cases.
| input-sequence | result-number |
| --- | --- |
| GWRGGGSDGGLR | 0.718 |
| GRRVQRGQARGA | 0.66 |
| LTSLIPPLPFLF | 0.669 |
| LPPPPPPSHPPP | 0.697 |
| ACGTFSDSMSQL | 0.691 |

Task: Please report the measured protein stability index for RPPPPPPPPPSP
Output: 0.723

Task: Please report the measured protein stability index for PPPSLPPPSATA
Output: 0.689

Task: Please report the measured protein stability index for GLWEVVEITRRE
Output: 0.684

Task: Please report the measured protein stability index for KGINALICTGSI
Output: 0.66

Task: Please report the measured protein stability index for VGRGGGVSLGGR
Output: 0.671

Task: Please report the measured protein stability index for RRNGVVGRLGWV
Output: 0.7

Task: Please report the measured protein stability index for AFRLRHEIISLM
Output: 0.282

Task: Please report the measured protein stability index for ILKQYLHRRFEF
Output: 0.709

Task: Please report the measured protein stability index for PSPLPSSGHPPP
Output: 0.621

Task: Please report the measured protein stability index for LSLYGLLLPTFE
Output: 0.714

----------
system: Saccharomyces cerevisiae; assay: protein stability index of tFT-peptide fusion (C-terminal peptide) (PSI (0-1 scale)); higher = more stable (slower turnover); conditions: genetic background: wild type; temperature: 30 C
Use 0.7 as the dividing line for protein stability index, with the line itself on the yes side and lower values as no.

| input-sequence | target | assigned-label |
| --- | --- | --- |
| NESCRNREPGHV | Saccharomyces cerevisiae | no |
| IRIIETPDSFYK | Saccharomyces cerevisiae | yes |
| CTHCAGVLLHTL | Saccharomyces cerevisiae | no |
| PETSRFALNEWG | Saccharomyces cerevisiae | yes |
| GESAWWRSFGDV | Saccharomyces cerevisiae | yes |

Task: Check this sequence for protein stability index at or above 0.7: EVGTMALISCSV
Output: no

Task: Check this sequence for protein stability index at or above 0.7: NSTERDNGIRKE
Output: no

Task: Check this sequence for protein stability index at or above 0.7: QKTSPWRQRGRL
Output: yes

Task: Check this sequence for protein stability index at or above 0.7: EQNKQPEKETYN
Output: no

----------
tested on: Saccharomyces cerevisiae; assay: protein stability index of tFT-peptide fusion (C-terminal peptide) (PSI (0-1 scale)); higher = more stable (slower turnover); settings: genetic background: doa10 deletion; temperature: 30 C
measurement-label: protein stability index
Lab note: write the figure by itself, no unit.

For orientation, consider the following solved cases.
| input-sequence | target | protein stability index |
| --- | --- | --- |
| LISGVCLRVKVG | Saccharomyces cerevisiae | 0.16 |
| GAWLAVCVVREG | Saccharomyces cerevisiae | 0.37 |
| FGWLELVWFDLG | Saccharomyces cerevisiae | 0.51 |
| LRQKIIYWWLWL | Saccharomyces cerevisiae | 0.255 |

Task: Please report the measured protein stability index for ALLYIVVGWSLS
Output: 0.12

Task: Please report the measured protein stability index for SVYLYFQVVAYG
Output: 0.0536

Task: Please report the measured protein stability index for CRFYIRITRRYS
Output: 0.156

Task: Please report the measured protein stability index for CRWHLRIVRGLM
Output: 0.29

Task: Please report the measured protein stability index for RGLLLKILIASG
Output: 0.188

Task: Please report the measured protein stability index for FLSVPHLLFLFI
Output: 0.49

Task: Please report the measured protein stability index for EVGTMALISCSV
Output: 0.252

Task: Please report the measured protein stability index for ARWNTDRRRRQL
Output: 0.236

Task: Please report the measured protein stability index for LSPPPLSFPFSA
Output: 0.643

Task: Please report the measured protein stability index for LVLGVEVCFVLG
Output: 0.147

Task: Please report the measured protein stability index for RMLSLFFPLRTL
Output: 0.196

Task: Please report the measured protein stability index for CLILGLFSLIFL
Output: 0.476

Task: Please report the measured protein stability index for GLPRASPLPIPV
Output: 0.425

Task: Please report the measured protein stability index for LWGLVGVCLVLC
Output: 0.135

Task: Please report the measured protein stability index for VAALFPPLRFLN
Output: 0.0912

----------
Recorded protein stability index by entry
test system: Saccharomyces cerevisiae; assay: protein stability index of tFT-peptide fusion (C-terminal peptide) (PSI (0-1 scale)); higher = more stable (slower turnover); settings: genetic background: wild type; temperature: 30 C
Lab note: write the figure by itself, no unit.

For orientation, consider the following solved cases.
| input-sequence | protein stability index |
| --- | --- |
| SGCRLGCASVVQ | 0.611 |
| AGADCSHCVVDV | 0.696 |
| PPQALPHSSKQA | 0.693 |

Task: Please report the measured protein stability index for VVWGAWGGWGCW
Output: 0.726

Task: Please report the measured protein stability index for PLSTGLPFPRSP
Output: 0.718

Task: Please report the measured protein stability index for KKKKNKKNKKQY
Output: 0.676

Task: Please report the measured protein stability index for PSPVPPPSSPSP
Output: 0.71

Task: Please report the measured protein stability index for GLSYPPLQFYYH
Output: 0.689

Task: Please report the measured protein stability index for SPAPIRFLWTIP
Output: 0.59

----------
test system: Saccharomyces cerevisiae; assay: protein stability index of tFT-peptide fusion (C-terminal peptide) (PSI (0-1 scale)); higher = more stable (slower turnover); settings: genetic background: cdc53-1; temperature: 37 C
Recorded protein stability index by entry
Lab note: write the figure by itself, no unit.

For orientation, consider the following solved cases.
| input-sequence | target | protein stability index |
| --- | --- | --- |
| GGLVVYVWGRWS | Saccharomyces cerevisiae | 0.592 |
| LLYPSKFCITAI | Saccharomyces cerevisiae | 0.559 |
| GSRVICMVVATM | Saccharomyces cerevisiae | 0.611 |

Task: Please report the measured protein stability index for ALFLYNCVVVTD
Output: 0.137

Task: Please report the measured protein stability index for RSCKSIRGIFVC
Output: 0.72

Task: Please report the measured protein stability index for VYCLFLPLGVAF
Output: 0.175

Task: Please report the measured protein stability index for RYRVRIVVFGLV
Output: 0.485

Task: Please report the measured protein stability index for WRVFRPSLRLFA
Output: 0.61

Task: Please report the measured protein stability index for NHKNANAATLIN
Output: 0.719

Task: Please report the measured protein stability index for RVCVFVLFGLCF
Output: 0.401

Task: Please report the measured protein stability index for LLPSPLLLYSLS
Output: 0.578

----------
tested on: Saccharomyces cerevisiae; assay: protein stability index of tFT-peptide fusion (C-terminal peptide) (PSI (0-1 scale)); higher = more stable (slower turnover); settings: genetic background: cdc34-1; temperature: 37 C
Recorded protein stability index by entry
Lab note: write the figure by itself, no unit.

For orientation, consider the following solved cases.
| input-sequence | protein stability index |
| --- | --- |
| KLKTSHILIKQT | 0.665 |
| VFSVTVVFVSVL | 0.158 |
| CVEACVWYNAGL | 0.745 |
| LLRLPLLALLFV | 0.236 |

Task: Please report the measured protein stability index for EMISRNVFTYLS
Output: 0.684

Task: Please report the measured protein stability index for YVASSWRHCFII
Output: 0.502

Task: Please report the measured protein stability index for LPTLDCPLHRLF
Output: 0.694

Task: Please report the measured protein stability index for CSKGLSILLLLL
Output: 0.636
